B1: CPEB3 Ribozyme (parent)
chain: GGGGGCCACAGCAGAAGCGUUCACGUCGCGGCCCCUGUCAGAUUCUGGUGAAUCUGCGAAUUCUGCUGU

variants of: B1; assay: self-cleavage, relative activity (ratio to wild type); higher = more cleavage; co-transcriptional
// n strictly below 0.3 in self-cleavage; y otherwise

Use the examples below as a reference point.
G48A C66U ... y
C12U A15G ... y
G19U A51G ... y
G3U A16C ... n
C24U U38A ... y
C32A G48C ... y
U38C A40C ... y
U49G C54U ... y
G5A U55A ... y
G1A G68A ... n

Request: # check: self-cleavage of G31A C66G is greater than or equal to 0.3
Response: y

Request: Determine whether measured self-cleavage meets or exceeds 0.3 for G1U G14A
Response: n

Request: Could you tell me if the measured self-cleavage of C34G C63G reaches 0.3 or more?
Response: y

Request: Hello, I need to know if C18A G25C has measured self-cleavage not below 0.3. Thanks!
Response: n

Request: In plain terms: is recorded self-cleavage at least 0.3 for G17C C39A ?
Response: n

Request: Is it the case that U20C A59G has self-cleavage reaching or exceeding 0.3?
Response: n
